Reported Water mg/ml (solubility in aqueous solution) values for the following compounds.
procedure-summary: Octanol/saline solubility and partition coefficient, shake-flask technique
reported-conditions: physiological saline as aqueous solution; sodium salts

// worked examples, Water mg/ml (solubility in aqueous solution) included
[[record]]
compound = "CCCCCCCCCCCCC(CCC)OCCOCCOP(=O)(O)O (stereo not drawn) [3,12-(ether)-DEG-PO4]"
experimental_result = ">5 mg/mL"

[[record]]
compound = "CCCCCCCCCCCCCCC(CCC)C(=O)[O-].[Na+] (stereo not drawn) [3,14-Na, reference compound]"
experimental_result = ">10 mg/mL"


Here's the next entry for you.
[Q] Name the reported Water mg/ml (solubility in aqueous solution) value associated with the compound CCCCCCCCCCCCC(CCC)OP(=O)([O-])OCC[N+](C)(C)C (stereo not drawn)
[A] >10 mg/mL

----------
procedure-summary: Octanol/saline solubility and partition coefficient, shake-flask technique
reported-conditions: octanol, organic solvent or mixture
measure-name: solubility

[[record]]
compound = "CCCCCCCCCCCCC(CCC)C(=O)OCCOP(=O)([O-])OCC[N+](C)(C)C (centres unmarked) [3,12-MEG-PC]"
experimental_result = "> 10 mg/mL"


Kindly consider the entry below.
[Q] # solubility lookup, item CCCCCCCCCCCCC(CCC)C(=O)OCCOCCOP(=O)([O-])OCC[N+](C)(C)C (centres unmarked) [3,12-DEG-PC]
[A] > 50 mg/mL

----------
System: blood brain barrier (BBB)
procedure-summary: BBB permeabilization in rats, Evans blue extravasation into brain
Type: in vivo, Sprague-Dawley rats
reported-conditions: Table 5; at EC50
Documented μg EB/g brain (at EC50) across a set of compounds
# unit: μg EB/g brain | format: bare number

Would you please look over these solved cases?
[[record]]
compound = "CCCCCCCC(CCCCCCC)C(=O)[O-].[Na+] [7,7-Na, reference compound]"
experimental_result = 4.2

[[record]]
compound = "CCCCCCCCCCC(CCC)C(=O)[O-].[Na+] (stereo not shown) [3,10-Na, reference compound]"
experimental_result = "08"

[[record]]
compound = "CCCCCCCC(CCC)C(=O)[O-].[Na+] (stereo not shown) [3,7-Na, reference compound]"
experimental_result = 0.8


Moving on to the next compound.
[Q] Would you mind telling me what μg EB/g brain (at EC50) value was observed for CCCCCCCCCCCCCCC(CCC)C(=O)[O-].[Na+] (stereo not shown) [3,14-Na, reference compound] ?
[A] 16.5

----------
Test system: blood tumor barrier (BTB) of C6 glioma
procedure-summary: BTB opening in C6 glioma-bearing rats, Evans blue accumulation in tumor
Assay type: in vivo, Sprague Dawley rats
reported-conditions: concentrations around EC50 (Mannitol 25%), unilateral 30 s infusion
measure-name: BTB EB μg/g Tumor (µg/g)
// return numeric value only (unit: µg/g, not printed)

Consider the following illustrative entries.
[[record]]
compound = "CCCCCCCCCCCCC(CCC)C(=O)OCCOCCOP(=O)([O-])OCC[N+](C)(C)C (centres unmarked) [3,12-DEG-PC]"
measure_name = "BTB EB μg/g Tumor"
experimental_result = 11

[[record]]
compound = "CCCCCCCCCCCCC(CCC)C(=O)[O-].[Na+] (centres unmarked) [3,12-Na, reference compound]"
measure_name = "BTB EB μg/g Tumor"
experimental_result = 44

[[record]]
compound = "CCCCCCCCCCCCC(CCC)OP(=O)([O-])OCC[N+](C)(C)C (centres unmarked) [3,12-PC, 4-Hexadecanyl phosphocholine]"
measure_name = "BTB EB μg/g Tumor"
experimental_result = 17

[[record]]
compound = "CCCCCCCCCCCCC(CCC)C(=O)OCCOP(=O)([O-])OCC[N+](C)(C)C (centres unmarked) [3,12-MEG-PC]"
measure_name = "BTB EB μg/g Tumor"
experimental_result = 12


Note: attention shifts to another entry.
[Q] # lookup: BTB EB μg/g Tumor of OC[C@@H](O)[C@@H](O)[C@H](O)[C@H](O)CO [Mannitol, mannitol, reference compound]
[A] 12

----------
Known EC50 of a selection of molecules
Test system: SKBR-3 breast cancer cell line
procedure-summary: MTT cytotoxicity, SKBR-3
Assay type: cell-based, human
reported-conditions: Homo sapiens, SK-BR-3, 72 h, three days, read-out: EC50 (50% reduction in cell viability)
The reply should be a number in µM, with the unit left off.

[Q] Which measured EC50 belongs to CCCCCCCCCCCCC(CCC)C(=O)OCCOP(=O)([O-])OCC[N+](C)(C)C (centres unmarked) , tested on SKBR-3 breast cancer cell line?
[A] 50

[Q] Param readout= EC50; system= SKBR-3 breast cancer cell line; entry= CCCCCCCCCCCCC(CCC)C(=O)OCCOCCOP(=O)([O-])OCC[N+](C)(C)C (centres unmarked) ; returns value.
[A] 40

----------
Listed here: items and their measured MEC (minimal effective concentration).
Tested on: blood brain barrier (BBB)
procedure-summary: BBB permeabilization in rats, Evans blue extravasation into brain
Type: in vivo, Sprague-Dawley rats
reported-conditions: Table 5; concentration giving 3 μg EB/g brain
// no unit, no text: just the number

Sample records with MEC (minimal effective concentration):
[[record]]
compound = "CCCCCCCCCCCCCCCCC(CCC)C(=O)[O-].[Na+] (stereo not shown) [3,16-Na, reference compound]"
system_tested = "blood brain barrier (BBB)"
measure_name = "MEC (minimal effective concentration)"
experimental_result = 18

[[record]]
compound = "CCCCCCCC(CCCCCCC)C(=O)[O-].[Na+] [7,7-Na, reference compound]"
system_tested = "blood brain barrier (BBB)"
measure_name = "MEC (minimal effective concentration)"
experimental_result = 132

[[record]]
compound = "CCCCCCCCCCCCCCC(CCC)C(=O)[O-].[Na+] (stereo not shown) [3,14-Na, reference compound]"
system_tested = "blood brain barrier (BBB)"
measure_name = "MEC (minimal effective concentration)"
experimental_result = 9.1


[Q] So what does the record say about MEC (minimal effective concentration) for CCCCCCCCCCCCC(CCC)C(=O)[O-].[Na+] (stereo not shown) [3,12-Na, reference compound] ?
[A] 6.5

----------
Each entry below lists one item and its recorded EC50 value.
Test system: blood tumor barrier (BTB) of C6 glioma
procedure-summary: BTB opening in C6 glioma-bearing rats, Evans blue accumulation in tumor
Assay type: in vivo, Sprague Dawley rats
reported-conditions: C6 glioma-bearing rats

[[record]]
molecule = "CCCCCCCCCCCCC(CCC)OP(=O)([O-])OCC[N+](C)(C)C (centres unmarked)"
experimental_result = "52 µM"


[Q] What value of measured EC50 is listed for CCCCCCCCCCCCC(CCC)C(=O)[O-].[Na+] (centres unmarked) [3,12-Na, reference compound] ?
[A] 22 µM
